System: human red blood cells (hRBC)
Assay type: cell-based
Details: red cells of human, 1 h
Where a SMILES comes first, the peptide text is derived from it. [ ]: non-standard residue; d: D form. Dap(CONH2) = NC(=O)NC[C@H](N)C(=O)O; Cha = N[C@@H](CC1CCCCC1)C(=O)O; Tle = CC(C)(C)[C@H](N)C(=O)O; dDab = NCC[C@@H](N)C(=O)O; Orn = NCCC[C@H](N)C(=O)O; Api = NC1(C(=O)O)CCNCC1; Dab = NCC[C@H](N)C(=O)O

MOLECULE	Hemolysis at 100 μg/ml
CC(C)C[C@@H]1NC(=O)[C@@H]2CCCN2C(=O)[C@H]2CCCN2C(=O)[C@H](CO)NC(=O)[C@H](C)NC(=O)[C@H](Cc2c[nH]c3ccccc23)NC(=O)[C@H](CCN)NC(=O)[C@H](Cc2c[nH]c3ccccc23)NC(=O)[C@H](CCN)NC(=O)[C@@H](CCN)NC(=O)[C@H](CCCN)NC(=O)[C@H](CCN)NC(=O)[C@H](Cc2ccc(O)cc2)NC(=O)[C@H](Cc2c[nH]cn2)NC1=O [compound 29] (cyclo(LHY[Dab][Orn][dDab][Dab]W[Dab]WAS[dP]P))	0%
CC(C)C[C@@H]1NC(=O)[C@@H]2CCCN2C(=O)[C@H]2CCCN2C(=O)[C@H](CO)NC(=O)[C@H](CNC(N)=O)NC(=O)[C@H](C(C)(C)C)NC(=O)[C@H](CCN)NC(=O)[C@H](Cc2c[nH]c3ccccc23)NC(=O)[C@H](CCN)NC(=O)C2(CCNCC2)NC(=O)[C@H](CCCN)NC(=O)[C@H](CCN)NC(=O)[C@H](CC2CCCCC2)NC(=O)[C@H](Cc2c[nH]cn2)NC1=O [compound 6] (cyclo(LH[Cha][Dab][Orn][Api][Dab]W[Dab][Tle][Dap(CONH2)]S[dP]P))	3%

---

Measured Hemolysis at 100 μg/ml, listed per entry.
Test system: human red blood cells (hRBC)
Type: cell-based
Conditions: red cells of human, 1 h
Where a SMILES comes first, the peptide text is derived from it. [ ]: non-standard residue; d: D form. Cha = N[C@@H](CC1CCCCC1)C(=O)O; Chg = N[C@H](C(=O)O)C1CCCCC1; Tle = CC(C)(C)[C@H](N)C(=O)O; dDab = NCC[C@@H](N)C(=O)O; Orn = NCCC[C@H](N)C(=O)O; Dab = NCC[C@H](N)C(=O)O

MOLECULE	Hemolysis at 100 μg/ml [%]
CC(C)C[C@@H]1NC(=O)[C@@H]2CCCN2C(=O)[C@H]2CCCN2C(=O)[C@H](CO)NC(=O)[C@H](C)NC(=O)[C@H](C2CCCCC2)NC(=O)[C@H](CCN)NC(=O)[C@H](Cc2c[nH]c3ccccc23)NC(=O)[C@H](CCN)NC(=O)[C@H](CCN)NC(=O)[C@H](CCCN)NC(=O)[C@H](CCN)NC(=O)[C@H](Cc2ccc(O)cc2)NC(=O)[C@H](Cc2c[nH]cn2)NC1=O [compound 22] (cyclo(LHY[Dab][Orn][Dab][Dab]W[Dab][Chg]AS[dP]P))	0
C[C@@H]1NC(=O)[C@H](CC2CCCCC2)NC(=O)[C@H](CCN)NC(=O)[C@H](Cc2c[nH]c3ccccc23)NC(=O)[C@H](CCN)NC(=O)[C@@H](CCN)NC(=O)[C@H](CCCN)NC(=O)[C@H](CCN)NC(=O)[C@H](C(C)(C)C)NC(=O)[C@H](Cc2c[nH]c3ccccc23)NC(=O)[C@H](Cc2c[nH]c3ccccc23)NC(=O)[C@@H]2CCCN2C(=O)[C@H]2CCCN2C(=O)[C@H](CO)NC1=O [compound 12] (cyclo(WW[Tle][Dab][Orn][dDab][Dab]W[Dab][Cha]AS[dP]P))	3
